Source: the supplement of paper PMC7877785

Experimental Details: self-splicing fitness, log relative to wild type (ln ratio); higher = more splicing; Tetrahymena group I intron in knt gene, E. coli kanamycin selection, DiMSum; sequences stand for … in CUCUCU…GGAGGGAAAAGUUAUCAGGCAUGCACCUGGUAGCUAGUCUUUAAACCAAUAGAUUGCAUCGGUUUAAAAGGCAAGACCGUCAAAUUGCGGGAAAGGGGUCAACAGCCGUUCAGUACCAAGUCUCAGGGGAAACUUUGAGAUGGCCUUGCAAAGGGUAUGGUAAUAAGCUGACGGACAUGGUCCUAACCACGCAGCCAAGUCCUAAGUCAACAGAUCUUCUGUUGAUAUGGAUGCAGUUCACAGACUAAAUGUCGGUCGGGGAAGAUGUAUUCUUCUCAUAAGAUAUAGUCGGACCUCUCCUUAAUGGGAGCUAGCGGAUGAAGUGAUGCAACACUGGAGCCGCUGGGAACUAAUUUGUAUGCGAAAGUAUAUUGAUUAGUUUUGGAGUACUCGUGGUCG;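 note: selection with 25 µg/mL kanamycin versus none on LB agar overnight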
Condition Context: 30 °C
Use 1 when the recorded self-splicing fitness (ln) is no lower than -3; use -1 when it is lower.

For orientation, consider the following solved cases.
Record Sequence	Classification
AGUUAGCAAUAUUACGGAGU	-1
UCCCAGCAAUAUUACGGCGU	1
UCCUAGCAAUAUUACGCGAU	-1

Query :: Quick check: does `UUCCAGCAAUAUUACGCGGG` have self-splicing fitness (ln) greater than or equal to -3?
Result :: -1

Query :: Quick check: does `UUUUAGCAAUAUUACGCCCA` have self-splicing fitness (ln) greater than or equal to -3?
Result :: 1

Query :: Quick check: does `UGACAGCAAUAUUACGAUAC` have self-splicing fitness (ln) greater than or equal to -3?
Result :: -1

Query :: Quick check: does `UCCUAGCAAUAUUACGGAUC` have self-splicing fitness (ln) greater than or equal to -3?
Result :: -1

Query :: Quick check: does `ACUGAGCAAUAUUACGCCAU` have self-splicing fitness (ln) greater than or equal to -3?
Result :: 1

====

Experimental Details: self-splicing fitness, log relative to wild type (ln ratio); higher = more splicing; Tetrahymena group I intron in knt gene, E. coli kanamycin selection, DiMSum; sequences stand for … in CUCUCU…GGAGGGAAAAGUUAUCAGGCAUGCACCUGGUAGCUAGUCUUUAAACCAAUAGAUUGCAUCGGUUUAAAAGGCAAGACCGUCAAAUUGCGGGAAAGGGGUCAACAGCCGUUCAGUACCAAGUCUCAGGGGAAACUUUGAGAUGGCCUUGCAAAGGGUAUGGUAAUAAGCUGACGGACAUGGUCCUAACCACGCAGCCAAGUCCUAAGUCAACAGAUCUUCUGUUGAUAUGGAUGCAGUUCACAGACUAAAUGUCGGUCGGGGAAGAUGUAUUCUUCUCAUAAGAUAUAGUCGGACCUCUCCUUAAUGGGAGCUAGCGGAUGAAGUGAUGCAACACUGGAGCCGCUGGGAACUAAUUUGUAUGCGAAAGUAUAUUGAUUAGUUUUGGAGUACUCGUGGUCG
Condition Context: 30 °C
Reported Property: self-splicing fitness (ln)
// return a plain number; no unit text

Record excerpt, results attached:
Record Sequence	self-splicing fitness (ln)
GACUAGCAAUAUUACGGGUU	-3.92
CAAUAGCAAUAUUACGGGAU	-3.36
CGGUAGCAAUAUUACGCGCG	-2.49

Query :: Given the sequence `CGGAAGCAAUAUUACGUAGA` , what is its reported self-splicing fitness (ln)?
Result :: -3.45

Query :: Given the sequence `AAGCAGCAAUAUUACGAUUA` , what is its reported self-splicing fitness (ln)?
Result :: -1.4

Query :: Given the sequence `GGGGAGCAAUAUUACGAUGG` , what is its reported self-splicing fitness (ln)?
Result :: -2.44

Query :: Given the sequence `UAGCAGCAAUAUUACGAUUC` , what is its reported self-splicing fitness (ln)?
Result :: -3.06

Query :: Given the sequence `CCACAGCAAUAUUACGCUCA` , what is its reported self-splicing fitness (ln)?
Result :: -2.89

====

Experimental Details: self-splicing fitness, log relative to wild type (ln ratio); higher = more splicing; Tetrahymena group I intron in knt gene, E. coli kanamycin selection, DiMSum; sequences stand for … in CUCUCU…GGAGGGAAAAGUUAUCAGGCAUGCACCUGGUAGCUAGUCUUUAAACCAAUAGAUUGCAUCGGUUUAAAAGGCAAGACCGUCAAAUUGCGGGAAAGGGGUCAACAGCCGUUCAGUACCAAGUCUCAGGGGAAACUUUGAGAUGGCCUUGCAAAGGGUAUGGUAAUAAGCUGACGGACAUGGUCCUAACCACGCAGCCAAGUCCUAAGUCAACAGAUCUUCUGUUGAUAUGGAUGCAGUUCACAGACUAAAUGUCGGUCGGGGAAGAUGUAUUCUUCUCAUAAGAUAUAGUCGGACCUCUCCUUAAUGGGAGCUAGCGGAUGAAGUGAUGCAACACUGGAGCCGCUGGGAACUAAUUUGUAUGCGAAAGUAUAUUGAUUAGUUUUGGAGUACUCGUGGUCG
Condition Context: 37 °C
Reported Property: self-splicing fitness (ln)

Record Sequence	Result
UUCAAGCAAUAUUACGUUCA	-0.12
AAAUAGCAAUAUUACGCUUC	-2.99
CGUGAGCAAUAUUACGUCCG	-0.866
CGUUAGCAAUAUUACGUUUA	-2.63
GGUGAGCAAUAUUACGUCCG	-0.66

Query :: Given the sequence `GUGUAGCAAUAUUACGACAU` , what is its reported self-splicing fitness (ln)?
Result :: -1.52

Query :: Given the sequence `ACUUAGCAAUAUUACGUCAU` , what is its reported self-splicing fitness (ln)?
Result :: -1.56

Query :: Given the sequence `AUGCAGCAAUAUUACGGUAA` , what is its reported self-splicing fitness (ln)?
Result :: -0.791

Query :: Given the sequence `GGCUAGCAAUAUUACGGCAG` , what is its reported self-splicing fitness (ln)?
Result :: -0.728

Query :: Given the sequence `UUCCAGCAAUAUUACGAAUG` , what is its reported self-splicing fitness (ln)?
Result :: -1.75

Query :: Given the sequence `GAGAAGCAAUAUUACGGAUC` , what is its reported self-splicing fitness (ln)?
Result :: -1.97

Query :: Given the sequence `UUGGAGCAAUAUUACGGUUC` , what is its reported self-splicing fitness (ln)?
Result :: -2.86

Query :: Given the sequence `CAUAAGCAAUAUUACGCGCC` , what is its reported self-splicing fitness (ln)?
Result :: -1.47

Query :: Given the sequence `ACGGAGCAAUAUUACGCCAA` , what is its reported self-splicing fitness (ln)?
Result :: -3.34

Query :: Given the sequence `UGAAAGCAAUAUUACGUACC` , what is its reported self-splicing fitness (ln)?
Result :: -1.61

Query :: Given the sequence `GCACAGCAAUAUUACGACUG` , what is its reported self-splicing fitness (ln)?
Result :: -0.12

====

Experimental Details: self-splicing fitness, log relative to wild type (ln ratio); higher = more splicing; Tetrahymena group I intron in knt gene, E. coli kanamycin selection, DiMSum; sequences stand for … in CUCUCU…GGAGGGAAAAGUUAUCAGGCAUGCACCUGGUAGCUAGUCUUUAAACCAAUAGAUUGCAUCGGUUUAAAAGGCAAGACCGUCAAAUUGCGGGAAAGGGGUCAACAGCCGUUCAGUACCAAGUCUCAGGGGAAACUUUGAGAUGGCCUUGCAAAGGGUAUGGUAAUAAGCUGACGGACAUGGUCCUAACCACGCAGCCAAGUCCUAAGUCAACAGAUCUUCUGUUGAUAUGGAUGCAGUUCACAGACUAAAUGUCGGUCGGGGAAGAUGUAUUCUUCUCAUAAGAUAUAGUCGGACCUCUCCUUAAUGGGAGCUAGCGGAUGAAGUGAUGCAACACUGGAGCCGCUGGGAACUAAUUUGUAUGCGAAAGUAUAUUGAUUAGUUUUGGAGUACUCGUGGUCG
Condition Context: 30 °C
Reported Property: self-splicing fitness (ln)
// return a plain number; no unit text

Record excerpt, results attached:
Record Sequence	self-splicing fitness (ln)
CUCGAGCAAUAUUACGUCUU	-4.4
CCGUAGCAAUAUUACGAAGU	-3.05
AAUAAGCAAUAUUACGACCU	0.104
UGCGAGCAAUAUUACGUAGC	-2.36
AACAAGCAAUAUUACGGCUC	-0.27

Query :: Given the sequence `GGUAAGCAAUAUUACGACCG` , what is its reported self-splicing fitness (ln)?
Result :: -1.05

Query :: Given the sequence `GUAUAGCAAUAUUACGUACA` , what is its reported self-splicing fitness (ln)?
Result :: -2.07

Query :: Given the sequence `ACGCAGCAAUAUUACGAUCU` , what is its reported self-splicing fitness (ln)?
Result :: -0.427
